Test: RP, Thermo Scientific Acclaim RSLC 120 C18, 100 × 2.1 mm, 2.2 µm, 30 °C, 0.2 mL/min, estimated dead time 1.1 min; A: 90% water + 10% methanol + 0.01% formic acid + 5 mM ammonium formate, pH 3.61; B: methanol + 0.01% formic acid + 5 mM ammonium formate, pH 3.61; gradient (min/%B) 0/1 1/1 2/39 13/99.9 15/99.9 15.1/1 20.1/1
Details: stereoisomer not certain
LC retention time by entry:
parameter.measured: LC retention time (min)

• Nc1nc(N)c2nc(-c3ccccc3)c(N)nc2n1 [Triamterene] = 4.68
• CCc1ccc(C(=O)c2cn(CCCCCF)c3ccccc23)c2ccccc12 [EAM-2201] = 12.2
• CCCCCCCCCCCCCC(=O)NCCC[N+](C)(C)CCCS(=O)(=O)O [Amidosulfobetaine-14] = 15
• CC(=O)OCCC(SC(C)=O)=C(C)N(C=O)Cc1cnc(C)nc1N [Acetiamine] = 4.46
• Cc1nnc2n1-c1ccc(Br)cc1C(c1ccccc1F)=NC2 [Flubromazolam] = 8.04
• CC(C)(C)NCC(O)c1ccc(O)c(CO)c1 (stereo not drawn) [Albuterol / Salbutamol] = 3.23
• CCOC(=O)C(CCc1ccccc1)NC(C)C(=O)N1C(C(=O)O)CC2CCCC21 (stereo not drawn) [Ramipril] = 8.56
• CC1(C)C(C=C(Cl)Cl)C1C(=O)OC(C#N)c1ccc(F)c(Oc2ccccc2)c1 (stereo not drawn) [Cyfluthrin (Baythroid)] = 13
